# Test system: ARH-77;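 also: growth inhibition of ARH-77 cells, read out by a cell viability assay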
# Experiment Description: cells
# Type: functional, cell-based
# Condition Set: Homo sapiens
# Description: SANGER: Inhibition of human ARH-77 cell growth in a cell viability assay.
pIC50: −log10 of the molar value.
Measured Attribute: pIC50

Study these solved cases before continuing.
N#C/C(=C1/Nc2ccccc2S1)c1ccnc(NCCc2cccnc2)n1 = < 5.10
Cc1ccc(NC(=O)c2cccc(C(C)(C)C#N)c2)cc1Nc1ccc2ncn(C)c(=O)c2c1 = < 5.40
CC(C)=CC[C@@H](O)C1=CC(=O)c2c(O)ccc(O)c2C1=O = 6.06

Next compound, please.
Data request, read-out pIC50, for "Cc1nc(Nc2ncc(C(=O)Nc3c(C)cccc3Cl)s2)cc(N2CCN(CCO)CC2)n1"
< 5.89

These data points were gathered from ChEMBL document CHEMBL1201861.
